Quick list: self-cleavage per entry.
B1: HDV Ribozyme (parent)
chain: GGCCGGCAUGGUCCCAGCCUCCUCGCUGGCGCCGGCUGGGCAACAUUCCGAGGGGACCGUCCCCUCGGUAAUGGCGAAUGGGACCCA

# Variants of: B1
# protocol.text: self-cleavage, relative activity (ratio to wild type); higher = more cleavage; co-transcriptional
readout.name: self-cleavage

[[record]]
variant_code = "G52C C64G"
observed = 0.739

[[record]]
variant_code = "G2A C18G"
observed = 0.0817

[[record]]
variant_code = "G53U G54A"
observed = 0.758

[[record]]
variant_code = "C7G G59C"
observed = 0.404

[[record]]
variant_code = "A8U U27C"
observed = 0.196

[[record]]
variant_code = "G59U C86G"
observed = 0.975

[[record]]
variant_code = "G81U C84U"
observed = 0.228

[[record]]
variant_code = "U12A G74C"
observed = 0.135

[[record]]
variant_code = "C49A C86A"
observed = 1.22

[[record]]
variant_code = "A43C"
observed = 0.498

[[record]]
variant_code = "G31C G81U"
observed = 0.086

[[record]]
variant_code = "U47G G67A"
observed = 0.831

[[record]]
variant_code = "C30U"
observed = 0.746

[[record]]
variant_code = "G31C A42U"
observed = 0.0707

[[record]]
variant_code = "C26U G54U"
observed = 1.07

[[record]]
variant_code = "C33U C58U"
observed = 0.917

[[record]]
variant_code = "C36G A43C"
observed = 0.166

[[record]]
variant_code = "C61G C63A"
observed = 0.718

[[record]]
variant_code = "G2C C41A"
observed = 0

[[record]]
variant_code = "U60G C75G"
observed = 0.119

[[record]]
variant_code = "C44G C57A"
observed = 0.944

[[record]]
variant_code = "C32G U47C"
observed = 0.0852

